B1: KCNG1 (parent)
chain: AVNLSVSTLPSLREEEEQVRAHAP

Variants of: B1
PROTOCOL_TEXT: protein stability index of a GFP-peptide fusion (GPS, HEK-293T) (PSI 1-6); higher = more stable;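 further: lentivirally expressed fusions sorted by FACS into six bins by GFP to DsRed ratio, PSI derived from sequencing read proportions per bin multiplied by bin number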
SETUP_CONDITIONS: c terminus: a fixed tail appended
QUANTITY_KIND: protein stability index
Lab note: jot the number down without any unit.

Past entries and their recorded results:
L4E ... 5.73
S7E ... 4.47
P24C ... 5.04
H22Q ... 4.57
E14I ... 4.37
S5T ... 4.59
R13M ... 5.03
E15N ... 4.61

Q. Give the reported value of protein stability index for this record: "P10A"
A. 4.59

Q. Give the reported value of protein stability index for this record: "V19T"
A. 4.9

Q. Give the reported value of protein stability index for this record: "S7V"
A. 4.71

Q. Give the reported value of protein stability index for this record: "A23S"
A. 5.2

Q. Give the reported value of protein stability index for this record: "A1Q"
A. 4.28

Q. Give the reported value of protein stability index for this record: "V19H"
A. 5.08

Q. Give the reported value of protein stability index for this record: "Q18V"
A. 4.55

Q. Give the reported value of protein stability index for this record: "P24A"
A. 5.57

Q. Give the reported value of protein stability index for this record: "V6P"
A. 5.45

Q. Give the reported value of protein stability index for this record: "E16M"
A. 3.56

Q. Give the reported value of protein stability index for this record: "E15A"
A. 4.2

Q. Give the reported value of protein stability index for this record: "E16F"
A. 3.59

Q. Give the reported value of protein stability index for this record: "P24Q"
A. 5.23

Q. Give the reported value of protein stability index for this record: "L4N"
A. 5.55

Q. Give the reported value of protein stability index for this record: "H22S"
A. 5.49
